# Test system: HMG-CoA red.
# assay procedure: HMG-CoA red. activity "ex vivo" in liver microsomes after chronic intraperitoneal administration to rats
# Design: unit not given here
# applied conditions: 50 mg/kg for 6 days, Control 17
property: Mevalonate formed
Answers are plain numbers.

Answered cases to consult:
| molecule | tested target | Mevalonate formed |
| --- | --- | --- |
| Cc1ccc(C)c(OCCCC(C)(C)C(=O)O[C@H]2C[C@H](C)CC(C)(C)C2)c1 (relative stereo) | HMG-CoA red. | 6.01 |
| Cc1ccc(C)c(OCCCC(C)(C)C(=O)O[C@H]2C[C@@H](C)CC(C)(C)C2)c1 (relative stereo) | HMG-CoA red. | 6.71 |
| Cc1ccc(OCCCCC(C)(C)C(=O)O[C@H]2C[C@@H](C)CC(C)(C)C2)c(C)c1 (relative stereo) | HMG-CoA red. | 3.8 |

// next item, Mevalonate formed requested
According to the records, this molecule C[C@H]1C[C@H](OC(=O)C(C)(C)Oc2ccc(C(=O)c3ccc(Cl)cc3)cc2)CC(C)(C)C1 (relative stereo) displays Mevalonate formed of 4.44
